For each record, write down the corresponding protein stability index.
B1: GMCL1 (parent)
chain: RPDTGDDAAGHGFCYCAGSHKRKR

variants of: B1; test: protein stability index of a GFP-peptide fusion (GPS, HEK-293T) (PSI 1-6); higher = more stable; details: c terminus: a fixed tail appended;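 note: lentivirally expressed fusions sorted by FACS into six bins by GFP to DsRed ratio, PSI derived from sequencing read proportions per bin multiplied by bin number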
One number for each entry.

INSERT INTO results (mutation_spec, result_type, number) VALUES
  ('A8D', 'protein stability index', 2.97);

For each entry beneath this line, provide reported protein stability index.
1. R1A
2. F13I
3. A8I

Result:
2.89
3.02
3.06
